Biological target: T1, soluble human ILT2-ECD (human, UniProt Q8NHL6 24-461)
T1 construct: also called LILRB1 extracellular domain
T1 sequence (Q8NHL6 24-461): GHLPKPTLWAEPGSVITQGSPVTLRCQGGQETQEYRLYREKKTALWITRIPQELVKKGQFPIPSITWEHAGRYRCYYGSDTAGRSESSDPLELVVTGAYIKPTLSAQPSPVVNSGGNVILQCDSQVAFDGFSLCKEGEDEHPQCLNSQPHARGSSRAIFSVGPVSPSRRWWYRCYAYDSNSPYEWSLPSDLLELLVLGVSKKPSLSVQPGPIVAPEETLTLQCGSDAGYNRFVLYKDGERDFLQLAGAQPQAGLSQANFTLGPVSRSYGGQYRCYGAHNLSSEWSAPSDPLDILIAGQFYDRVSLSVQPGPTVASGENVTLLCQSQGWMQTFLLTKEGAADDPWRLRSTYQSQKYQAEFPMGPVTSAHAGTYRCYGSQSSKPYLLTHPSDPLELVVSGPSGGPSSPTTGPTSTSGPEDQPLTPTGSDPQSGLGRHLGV
Assay: SPR (Biacore), antibody captured on Protein A chip, soluble ILT-ECD injected (1.6-200 nM), 25 C
Consider the following binders; for each one, report its koff.
Give just the number in s⁻¹; leave the unit off.

response.value for anti-ILT2/ILT4 antibody 73D1 (antibody, V domains shown, Mouse hybridoma antibody; Shares its light chain variable region with 73C4) VH: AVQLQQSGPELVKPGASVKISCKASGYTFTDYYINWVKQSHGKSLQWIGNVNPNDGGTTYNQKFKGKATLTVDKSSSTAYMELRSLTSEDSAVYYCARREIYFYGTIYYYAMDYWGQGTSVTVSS VL: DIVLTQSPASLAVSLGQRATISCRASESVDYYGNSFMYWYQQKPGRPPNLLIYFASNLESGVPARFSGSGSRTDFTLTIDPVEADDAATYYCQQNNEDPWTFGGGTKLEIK (field: koff) = 6e-05

// sample anti-ILT2/ILT4 antibody 51A1 (antibody, V domains shown, Mouse hybridoma antibody) VH: EVQLVESGGGLVQPKGSLKLSCAASGFTFNTYAMHWVRQAPGKGLEWVARIRSKSSNYATYYADSVKDRFTISRDDSQSMLYLQMNNLKTEDTAMYYCVRDGIYYYGTMYYYAMDYWGQGTSVTVSS VL: NIVLTQSPASLAVSLGQRATISCRASESVDYYGNSFMYWYQQKPGQPPKLLIYFASNLESGVPARFSGSGSRTDFTLTIDPVEAADAASYYCQQNNEDPWTFGGGTKLEIK , its koff was 0.00022

Value of koff reported for the binder anti-ILT2 antibody 27F9 (antibody, V domains shown, Mouse hybridoma antibody; also called clone 27F9; anti-ILT2 (27F9)) VH: QVQLKESGPGLVAPSQSLSITCTVSGFSLTNYGVSWVRQPPGKGLEWLGIIWGDGSTNYHSALISRLSISKDNSKSQVFLKLNSLQADDTATYYCAKPNWDTYAMDFWGQGTSVTVSS VL: DIQMTQTTSSLSASLGDRVTISCRASQDISNFLNWYQQKPDGTVKLLIYCTSKLHSGVPSRFSGSGSETDYSLTISNLEQEDIATYFCQQGNTLPPTFGGGTKLEII is 5.4e-05

The recorded koff for anti-ILT2/ILT4 antibody 47H6 (antibody, V domains shown, Mouse hybridoma antibody) VH: EVQLQQSGPELVKPGASVKISCKASGYTFTDYYMNWVKQSHGKSLEWIGDFNPNNGGTTYNQKFEGKATLTVDKSSNTAYMDLRSLTSEDSAVYYCARGRFYYGSLYSFDYWGQGTTLTVSS VL: DIQMTQSPASLSASVGETVTITCRASGNIHNYLAWYQQKQGKSPHLLVYNAKTLADGVPSRFSGSGSGTQYSLKINNLQPEDFGSYYCQHFWTSITFGAGTKLDLK is 8.6e-05
